# Tested on: BT-549 breast
# ASSAY TEXT: NCI tumour cell line growth inhibition, 48 h
I'd be grateful if you could share measured TGI for these entries.

Quick check: TGI of "O=C(OCC(Cl)(Cl)Cl)N1CC[C@@H](C2CCCCC2)C1" ? > 100 µM

Reported TGI for "[O-]/N=N\c1on[n+](CCc2ccccc2)c1Cc1c(/N=N/[O-])on[n+]1CCc1ccccc1" : what is it? 78.1 µM

Please report the recorded TGI for "Cc1cc(O)c2cc3c(O)c(O)ccc3cc2c1" . > 44.3 µM

Any idea what its TGI is? The compound is O=C(O)c1cccc(S(=O)(=O)NN2C(=O)CSC2c2ccccc2Cl)c1 (stereo unspecified) > 100 µM

Recorded TGI of "S=C1NCCN1C(=S)NC1CCCCC1" , please. 60.9 µM

Query: TGI; subject: "COc1ccc(Oc2nc(Nc3ccc(N4CCOCC4)cc3)ncc2NC(=O)Nc2cc(OC)cc(OC)c2)cc1" 7.98 µM

Give its TGI value. Item: Clc1cc2nnn(C3CCCCO3)c2cc1Cl (stereo unspecified) > 100 µM

Returns the measured TGI for the input compound. Input: "c1ccc(N=C2C(=Nc3ccccc3)N(C3CCCCC3)C(=NC3CCCCC3)N2c2ccccc2)cc1" > 100 µM

What does the data say about its TGI? Entry: "CN(CCNC(=O)c1cn(C)c2c1ccc1cc(Cl)ccc12)CCNC(=O)c1cn(C)c2c1ccc1cc(Cl)ccc12" 21.9 µM

Given COc1ccc(N2C(=O)C(C#N)=C(SC)C(C#N)C2=O)cc1 (stereo unspecified) , state its recorded TGI. > 100 µM

Suppose we examine the compound "O=C1C=Cc2c1csc2Br" ; what TGI value has been reported? > 100 µM

###

# Test system: SNB-75 CNS
# ASSAY TEXT: NCI tumour cell line growth inhibition, 48 h
Provide the reported TGI of each item.

Quick one: TGI of "CCN1CCN(CC(=O)Nc2nc3ccc(NCc4ccc(C)cc4)cc3s2)CC1" ? 9.42 µM

I'd like to know its TGI. The compound in question is Nc1nccc2c1ncn2C1C=C(CO)C(O)C1O (configuration not stated) > 1000 µM

Please look up its TGI: "Cc1ccc2c(n1)C(=O)C(Cl)=C(Nc1ccc(N3CCN(C)CC3)cc1)C2=O" 8.53 µM

Quick one: TGI of "c1ccc2c(c1)ncn2CCn1ccnc1" ? > 100 µM

Please report the recorded TGI for "Cc1cc(CN(Cc2ccccc2)Cc2nc3ccccc3[nH]2)c(O)c(CN(Cc2nc3ccccc3[nH]2)Cc2nc3ccccc3[nH]2)c1" . > 72.3 µM

Param item = CC(C)(C)C1CCC(CI)(N=[N+]=[N-])CC1 (configuration not stated) ; retrieve measured TGI. > 100 µM

Would you kindly share the measured TGI for "c1csc(-c2ccc(-c3ccsc3)s2)c1" ? > 100 µM

For the compound shown here, CC1=C(S(=O)c2ccc(C)cc2)CCC2(CCCCO2)O1 (configuration not stated) , give the reported TGI. > 100 µM

Find the recorded TGI belonging to "COc1ccc(Oc2nc(Nc3ccc(N4CCOCC4)cc3)ncc2NC(=O)Nc2cc(OC)cc(OC)c2)cc1" and report it. 18.2 µM

Consider the compound COC(=O)CCN1CCN(CCO)CC1C (configuration not stated) and give its measured TGI. > 10 µM

What value of TGI has been recorded for this entry: "Cc1cc(N2CCN(C)CC2)nc(N(CCNc2ccnc3cc(Cl)ccc23)Cc2ccco2)n1" 19.6 µM

Form field: reported TGI of "c1ccc2c(c1)ccc1nc3ccccn3c12" > 100 µM

Name the reported TGI value associated with the compound "N=c1oc2ccc([N+](=O)[O-])cc2cc1C(=O)Nc1ccccn1" > 100 µM

// lookup TGI for "O=C(Nc1sccc1S(=O)(=O)c1ccc(Cl)cc1)c1ccc(Cl)cc1Cl" > 100 µM

# query: TGI of entry "CCOC(=O)C1=C(C)NC(C)=C(C(=O)OCC)C1c1cc(Br)c(O)c(OC)c1" 7.14 µM

Given the compound O=C1CC(NC2CC(=O)c3c(Br)sc(Br)c32)c2c(Br)sc(Br)c21 (configuration not stated) , what is its reported TGI? 31.4 µM

Reported TGI, compound "CCc1cccc(C(C)C)c1NC1=C([n+]2ccc(C)cc2)C(=O)c2ccccc2C1=O" : ____ 7.32 µM

Could you share which TGI value was measured for "CC1(Br)S(=O)(=O)OCCOS1(=O)=O" ? > 100 µM

What value of measured TGI is listed for COc1ccc(N2C(=O)C(C#N)=C(SC)C(C#N)C2=O)cc1 (configuration not stated) ? > 100 µM

# get_value(readout='TGI', item= "CN=c1ss/c(=N\C(=S)N(C)C)n1C1CCCCC1" ) > 10 µM

// returns reported TGI for input COc1ccc(C2=NNC(c3cc(Cc4ccc(O)c(C5CC(c6ccc(OC)cc6)=NN5)c4)ccc3O)C2)cc1 (configuration not stated) > 100 µM

What TGI value was documented for this compound, "COC(=O)c1c2c(c(C)[n+]([O-])c1C)C(=O)C=C(NCc1ccc(Br)cc1)C2=O" ? 2.94 µM

Hello, the source for this data is PubChem BioAssay (NCI), in case you need it.
